Target: Histone deacetylase 8 (Homo sapiens)
Sequence (Q9BY41 whole entry): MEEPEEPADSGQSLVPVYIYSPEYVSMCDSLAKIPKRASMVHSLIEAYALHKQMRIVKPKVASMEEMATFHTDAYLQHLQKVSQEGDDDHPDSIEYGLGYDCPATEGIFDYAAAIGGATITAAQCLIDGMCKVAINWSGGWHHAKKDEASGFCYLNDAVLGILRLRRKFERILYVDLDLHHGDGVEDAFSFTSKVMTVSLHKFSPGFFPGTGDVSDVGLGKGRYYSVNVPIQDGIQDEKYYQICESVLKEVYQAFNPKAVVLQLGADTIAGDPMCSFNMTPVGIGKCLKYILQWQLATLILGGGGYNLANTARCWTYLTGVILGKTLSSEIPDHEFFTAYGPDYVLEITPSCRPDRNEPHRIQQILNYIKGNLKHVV
READOUT: IC50 (nM)

a: CC(C)[C@H](NS(=O)(=O)c1cccc(C(=O)NO)c1)C(=O)Nc1ccccc1
b: O=C(NO)c1cccc(S(=O)(=O)Nc2ccccc2)c1
c: O=C(NO)c1cccc(S(=O)(=O)N[C@H](C(=O)Nc2ccccc2)c2ccccc2)c1
input: Using measured IC50, arrange the compounds from above in descending sequence. Answer by listing the labels in the order asked for.
output: a, c, b

---

Target: Histone deacetylase 2 (Homo sapiens)
Sequence (Q92769 whole entry): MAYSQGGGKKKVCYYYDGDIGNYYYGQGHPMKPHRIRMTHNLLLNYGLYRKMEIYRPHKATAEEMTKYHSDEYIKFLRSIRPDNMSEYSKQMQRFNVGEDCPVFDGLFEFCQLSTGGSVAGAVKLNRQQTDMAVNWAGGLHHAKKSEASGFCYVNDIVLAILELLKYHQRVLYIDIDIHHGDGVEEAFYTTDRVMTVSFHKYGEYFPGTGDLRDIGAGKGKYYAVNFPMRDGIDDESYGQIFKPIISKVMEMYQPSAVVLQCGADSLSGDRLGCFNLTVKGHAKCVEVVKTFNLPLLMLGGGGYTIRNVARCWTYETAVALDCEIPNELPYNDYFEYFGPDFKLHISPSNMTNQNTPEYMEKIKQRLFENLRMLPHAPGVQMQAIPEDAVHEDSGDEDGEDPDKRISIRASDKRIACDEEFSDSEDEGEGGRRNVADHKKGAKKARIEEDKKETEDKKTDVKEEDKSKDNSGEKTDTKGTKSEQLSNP
READOUT: IC50 (µM)

A: O=C(NO)c1cccc(S(=O)(=O)N[C@@H](Cc2c[nH]c3ccccc23)C(=O)Nc2ccccc2)c1
B: O=C(NO)c1cccc(S(=O)(=O)NCc2ccccc2)c1
C: O=C(NO)c1cccc(S(=O)(=O)Nc2ccccc2)c1
input: Using measured IC50, arrange the molecules from above in descending sequence. Answer by listing the labels in the order asked for.
output: A, B, C
(A: 70.4 µM, B: 47.1 µM, C: 14.5 µM)

---

Tested on: K562
Test: Antiproliferative activity against human K562 cells after 48 hrs by MTT assay
Assay type: functional, cell-based
Details: K562, 48 h
pIC50: −log10 of the molar value.
READOUT: pIC50

// known answers, use as guide
1. O=C(NO)c1cccc(S(=O)(=O)NCc2ccccc2)c1 = < 4.30
2. O=C(NO)c1cccc(S(=O)(=O)Nc2ccccc2)c1 = < 4.30
3. COc1ccc(Cn2ccc3ccc(C(=O)NO)cc32)cc1 = < 4.60

input: # return recorded pIC50 for input `O=C(NO)c1cccc(S(=O)(=O)NCCc2ccccc2)c1`
output: < 4.30

---

Target: Protein deacetylase HDAC6 (Homo sapiens, UniProt Q9UBN7)
Sequence (Q9UBN7 whole entry): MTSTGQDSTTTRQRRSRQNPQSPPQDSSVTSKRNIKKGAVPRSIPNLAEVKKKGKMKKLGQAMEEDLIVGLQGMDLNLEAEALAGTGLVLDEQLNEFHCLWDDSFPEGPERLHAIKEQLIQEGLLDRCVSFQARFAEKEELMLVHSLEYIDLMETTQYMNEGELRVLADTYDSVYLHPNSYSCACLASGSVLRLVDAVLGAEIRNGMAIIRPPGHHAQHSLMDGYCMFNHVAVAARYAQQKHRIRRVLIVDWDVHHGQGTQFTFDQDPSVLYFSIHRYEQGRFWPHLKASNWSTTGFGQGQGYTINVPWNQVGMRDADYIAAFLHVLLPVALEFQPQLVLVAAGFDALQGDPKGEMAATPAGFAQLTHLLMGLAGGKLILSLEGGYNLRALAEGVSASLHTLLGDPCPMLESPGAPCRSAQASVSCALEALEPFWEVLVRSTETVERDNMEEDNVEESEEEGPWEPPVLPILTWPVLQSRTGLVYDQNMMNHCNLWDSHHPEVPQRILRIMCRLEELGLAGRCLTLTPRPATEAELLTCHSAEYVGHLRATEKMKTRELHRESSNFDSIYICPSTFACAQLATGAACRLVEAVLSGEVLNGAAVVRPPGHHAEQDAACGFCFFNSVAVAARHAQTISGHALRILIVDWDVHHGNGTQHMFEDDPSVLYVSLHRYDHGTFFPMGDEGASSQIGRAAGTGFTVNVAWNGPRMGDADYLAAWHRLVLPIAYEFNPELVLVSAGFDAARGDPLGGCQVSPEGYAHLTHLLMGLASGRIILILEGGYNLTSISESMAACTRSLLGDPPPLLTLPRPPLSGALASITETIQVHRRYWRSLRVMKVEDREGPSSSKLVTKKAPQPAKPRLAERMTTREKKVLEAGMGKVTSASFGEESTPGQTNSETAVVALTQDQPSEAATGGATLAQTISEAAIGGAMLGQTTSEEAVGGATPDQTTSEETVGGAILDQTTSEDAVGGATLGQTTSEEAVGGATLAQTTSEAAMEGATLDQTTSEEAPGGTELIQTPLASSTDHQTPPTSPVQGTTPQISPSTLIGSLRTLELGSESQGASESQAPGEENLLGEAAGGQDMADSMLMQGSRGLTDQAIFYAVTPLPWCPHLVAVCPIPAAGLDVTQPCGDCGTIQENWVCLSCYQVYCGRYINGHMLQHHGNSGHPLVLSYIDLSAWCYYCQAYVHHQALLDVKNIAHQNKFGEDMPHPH
Test: Inhibition of HDAC6 in human HeLa cells assessed as increase in acetyl-tubulin level at 2 uM after 12 hrs by Western blot analysis
Format: cell-based
READOUT: inhibition (INH)

1. O=C(NO)c1cccc(S(=O)(=O)NCc2ccccc2)c1 = Not Active
2. O=C(NO)c1cccc(S(=O)(=O)NCCc2ccccc2)c1 = Not Active
3. O=C(NO)c1cccc(S(=O)(=O)Nc2ccccc2)c1 = Not Active
4. O=C(CCCCCCC(=O)Nc1ccccc1)NO [VORINOSTAT] = Active

# input for lookup
input: # return recorded inhibition (INH) for input CN1CCc2c(c3ccccc3n2Cc2ccc(C(=O)NO)cc2)C1 [TUBASTATIN A]
output: Active

---

// values below are reported pIC50
System: PC-3
Assay: Antiproliferative activity against human PC3 cells after 48 hrs by MTT assay
Format: functional, cell-based
Conditions: PC-3, 48 h
pIC50: −log10 of the molar value.

// known answers, use as guide
1) COc1ccc(Cn2ccc3ccc(C(=O)NO)cc32)cc1 = 4.72
2) O=C(NO)c1cccc(S(=O)(=O)NCc2ccccc2)c1 = < 4.30
3) O=C(NO)c1cccc(S(=O)(=O)Nc2ccccc2)c1 = < 4.30

input: # return recorded pIC50 for input `O=C(NO)c1cccc(S(=O)(=O)NCCc2ccccc2)c1`
output: < 4.30
